Where these numbers come from: patent US11780826B2

I'd appreciate it if you could supply AC1.4 values for the items below.
System: Bovine cardiac myofibrils
test summary: In vitro model of dose-dependent myofibril ATPase modulation (AC1.4, pyruvate kinase/lactate dehydrogenase-coupled ATPase assay at pCa25)
Assay type: biochemical
condition set: concentration at which ATPase activity was 1.4-fold higher than the bottom of the dose curve, mean of a minimum of two independent tests
Protocol: In vitro Model of Dose-Dependent Myofibril ATPase Modulation: Dose responses were measured using a calcium-buffered, pyruvate kinase and lactate dehydrogenase-coupled ATPase assay containing the following reagents (concentrations expressed are final assay concentrations): Potassium PIPES (12 mM), MgCl2 (2 mM), ATP (1 mM), DTT (1 mM), BSA (0.1 mg/mi), NADH (0.5 mM), PEP (1.5 mM), pyruvate kinase (4 U/ml), lactate dehydrogenase (8 U/ml), and antifoam (90 ppm). […]
Give bare numbers, in µM.

Consider the reported AC1.4 for these compounds:
- query smiles: "C[C@H](NC(=O)[C@H]1CCCN1C(=O)[C@H]1CCCN(S(=O)(=O)N2CC(C#N)C2)C1)c1ccc(C(F)(F)F)cc1"
  scale unit: "µM"
  AC1.4: 1.6305
- query smiles: "CCS(=O)(=O)c1cccc(C(=O)N2[C@@H](C(=O)NCc3cc(F)c(Cl)cc3F)C[C@H]3C[C@H]32)c1"
  scale unit: "µM"
  AC1.4: 3.626

Now for another entry.
// field: AC1.4; key: `CS(=O)(=O)c1cc(C(=O)N2[C@@H](C(=O)N[C@@H](c3ccc(C(F)(F)F)c(F)c3)C3CC3)C[C@H]3C[C@H]32)ccn1` ; value = 4.554
